meta.source: PubChem BioAssay (NCI)

# System: MDA-MB-435 melanoma
# assay: NCI-60 one-dose screen, 48 h (100 = growth as untreated, 0 = no growth, -100 = all killed)
# measurement.context: 10 µM unless noted
# Procedure: Growth inhibition of the MDA-MB-435 human Melanoma tumor cell line is measured as a screen for anti-cancer activity. Cells are grown in 96 well plates and exposed to the test compound for 48 hours. Compounds are tested at a single concentration, which is 10^-5 M for most compounds. The reported endpoint is percent growth (GI% or GIPRCNT), where numbers from 0 - 100% represent growth inhibition, and numbers from -100% - 0 represent cell death. […]
The panel holds about 83,000 compounds, 20% with a hit somewhere; the sample as a whole holds those more often.
# label = True if growth < 30% else False

# compound, answer.label
measured = [
    ("COc1cccc(/C=C2\\COc3ccc(O)cc3C2=O)c1OC", "True"),
    ("CCCCCCCCN(CCCCCCCC)C(=N)c1ccnc2ccccc12", "True"),
    ("COC1(CC[C@@H](C)COC2OC(CO)C(O)C(O)C2O)O[C@H]2C[C@H]3[C@@H]4CC=C5C[C@@H](OC6OC(CO)C(OC7OC(C)C(O)C(O)C7O)C(O)C6OC6OC(C)C(O)C(O)C6O)CC[C@]5(C)[C@H]4CC[C@]3(C)[C@H]2[C@@H]1C (stereo partly drawn)", "True"),
    ("Nc1nc(N)c(-c2ccc(Cl)cc2)c(/C=C/c2ccc([N+](=O)[O-])cc2)n1", "False"),
    ("CN1CCN(CCCOc2ccc3nc(Nc4cc(Cl)cc(Cl)c4)ccc3c2)CC1", "True"),
    ("Cc1ccccc1NC(=O)CN(C)C", "False"),
    ("Cc1ccc(S(=O)(=O)N(CC[C@@H]2C[C@H]2c2cc3ccccc3o2)C(=O)NC2CCCCC2)cc1", "False"),
    ("C=C1C(=O)O[C@H]2[C@H]1CC/C(COC(=O)/C=C\\C(=O)NCc1ccc(Cn3c(=O)sn(-c4ccc(OC)cc4)c3=O)cc1)=C\\CC[C@@]1(C)O[C@@H]21", "True"),
    ("CNC(=O)c1c(NC(=O)c2ccc(C(C)(C)C)cc2)sc2c1CCC(=O)C2", "True"),
    ("C=C1C(=O)O[C@H]2[C@H]1CC/C(COC(=O)NCc1ccc(Cn3c(=O)sn(CCCCl)c3=O)cc1)=C\\CC[C@@]1(C)O[C@@H]21", "True"),
    ("NC(=O)c1c(NC(=O)c2ccc(C(F)(F)F)cc2Cl)sc2c1CCC(=O)C2", "True"),
    ("CCOC(=O)c1nnn(C(Cc2ccccc2Cl)C(=O)OCC)c1C (stereo not drawn)", "False"),
    ("N#Cc1c(NC(=O)c2ccccc2I)sc2c1CCCC2", "True"),
]

====

# System: HCT-15 colon
# assay: NCI-60 one-dose screen, 48 h (100 = growth as untreated, 0 = no growth, -100 = all killed)
# measurement.context: 10 µM unless noted
The panel holds about 83,000 compounds, 20% with a hit somewhere; the sample as a whole holds those more often.
Entries and their measured growth follow.

# compound, tested.target, growth (%)
rows = [
    ("C=C(C)[C@@H]1CC[C@]2(CN)CC[C@]3(C)[C@H](CC[C@@H]4[C@@]5(C)CCC(N)[C@@](C)(CO)[C@@H]5CC[C@]43C)[C@@H]12 (stereo partly drawn)", "HCT-15 colon", -47.6),
    ("Cc1ccc(S(=O)(=O)Nc2sccc2-c2nc(-c3ccccc3)no2)cc1", "HCT-15 colon", 97.9),
    ("O=C(c1ccccc1)c1ccc(Cl)c([N+](=O)[O-])c1", "HCT-15 colon", 90),
    ("CCCCCCCC/C=C/CCCCCCCC1=NCC[N+]1(CCO)CCO", "HCT-15 colon", 80.6),
    ("Cc1[nH]c(-c2nc3ccccc3[nH]2)c(C)c1C(=O)N1CCOCC1", "HCT-15 colon", 95.5),
    ("C(=C\\c1nc2ccccc2[nH]1)/c1nc2ccccc2[nH]1", "HCT-15 colon", 100),
    ("O=C1CSC(c2ccccc2O)N1c1nnc(Cn2cnnc2)o1 (stereo not drawn)", "HCT-15 colon", 66.2),
    ("C=C(C)[C@@H]1CC[C@@]2(C(=O)O)CC[C@]3(C)C(CCC4[C@@]5(C)CCC(OS(=O)(=O)c6ccccc6)C(C)(C)C5CC[C@]43C)C12 (stereo partly drawn)", "HCT-15 colon", 39.7),
    ("CCOC(=O)Cc1csc2nc(-c3ccccc3)nn12", "HCT-15 colon", 113),
    ("O=C1C2=C(CCN(Cc3ccccc3)C2)N2CCN=C2N1Cc1ccc(F)cc1F", "HCT-15 colon", 20.4),
    ("Cc1cc(Cl)nc(N(CCCNc2ccnc3cc(Cl)ccc23)Cc2ccccn2)n1", "HCT-15 colon", 35.2),
    ("CN1CCN(c2ccc(Nc3ncc(Cl)c(NC[C@@H]4CCCO4)n3)cc2)CC1", "HCT-15 colon", 24.3),
    ("O=[N+]([O-])c1ccc(-c2cc3c(Nc4ccc(OCc5cccc(Cl)c5)c(Cl)c4)ncnc3s2)cc1", "HCT-15 colon", 55.3),
]

====

# Tested on: ACHN renal
# assay: NCI-60 one-dose screen, 48 h
# measurement.context: 10 µM unless noted
About 83,000 compounds went through this panel and 20% of them were active in at least one assay; those are over-represented in the sample as a whole. Calls of active or inactive are those of the source. Rule for the calls: active = growth percent below 10; inactive = the rest.
Possible outcomes: active, inactive

# compound, answer.label
records = [
    ("CN(C)c1ccc(/C=N/NC(=O)COc2cc(=O)n(C)c3ccccc23)cc1", "inactive"),
    ("C[C@@H]1C(=O)N(C[C@H](Cc2ccccc2)N(Cc2ccccc2)Cc2ccccc2)[C@]1(Cc1ccccc1)C(=O)OC(C)(C)C", "inactive"),
    ("O=C1CCC(N2C(=O)c3cccc(NCCCC4CCN(CCNC(=O)c5cc6c(o5)C(=O)c5ccccc5C6=O)CC4)c3C2=O)C(=O)N1 (stereo not given)", "active"),
    ("CCN(CC)N=Nc1nn(C(=O)Nc2ccc(Cc3ccccc3)cc2)c2ccc(Cl)cc12", "inactive"),
    ("N=C(N)c1ccc(-c2ccc(-c3ccc(Cl)cc3Cl)o2)cc1", "active"),
    ("COc1cc2cc(Oc3ccc(NC(=O)Nc4cc(C(F)(F)F)cc(C(F)(F)F)c4)cc3)c(C)nc2cc1OCCN1CCCCC1", "active"),
    ("CCCCCCCC/C=C/CCCCCCCC1=NCC[N+]1(CCO)CCO", "inactive"),
    ("Cc1ccc(NSc2ccccc2[N+](=O)[O-])cc1", "inactive"),
    ("O=C1N/C(=N/O)S/C1=C/c1cn(-c2ccccc2)nc1-c1ccccc1", "inactive"),
    ("Fc1ccc(Nc2ccc3cc(OCCCN4CCOCC4)ccc3n2)cc1F", "inactive"),
    ("O=C(CC1Sc2ccccc2NC1=O)NNc1ccc(F)cc1 (stereo not given)", "inactive"),
    ("CCOc1ccc(S(=O)(=O)c2ccc(C)cc2)c2c1no[n+]2[O-]", "inactive"),
    ("O=c1[nH]c(NCc2nnnn2-c2ccc(Br)cc2)nc2sc3c(c12)CCCC3", "inactive"),
    ("CCCCC1COc2cccc3c(SCC(=O)N(C)c4cccc(Cl)c4)cc[n+]1c23 (stereo not given)", "inactive"),
    ("C=C1C(=O)O[C@H]2[C@H]1CC/C(Cn1cc(CNCCc3c[nH]c4ccc(Cl)cc34)nn1)=C\\CC[C@@]1(C)O[C@@H]21", "inactive"),
]

====

# Test system: SK-MEL-28 melanoma
# assay: NCI-60 one-dose screen, 48 h (100 = growth as untreated, 0 = no growth, -100 = all killed)
# measurement.context: 10 µM unless noted
Compounds without any hit were thinned out: in the full panel of roughly 83,000, 20% have a hit.
The entries below are paired with their reported growth.
measured.quantity: growth (%)

# compound, tested.target, unit.abbrev, assay.result
data = [
    ("COc1ccc(-c2nc3ccccn3c2/C=C/C(=O)c2cc(OC)c(OC)c(OC)c2)cc1", "SK-MEL-28 melanoma", "%", 41.1),
    ("O=C(Oc1ccc([N+](=O)[O-])cc1)c1ccc(CBr)cc1", "SK-MEL-28 melanoma", "%", 104),
    ("CSc1ncc(C)c(Nc2ccc(Cl)cc2)n1", "SK-MEL-28 melanoma", "%", 114),
    ("O=C1N/C(=N/O)S/C1=C/c1cn(-c2ccccc2)nc1-c1ccccc1", "SK-MEL-28 melanoma", "%", 113),
    ("O=C(C[C@@]1(O)C(=O)Nc2c(Cl)ccc(Cl)c21)c1ccc(C2CC2)cc1", "SK-MEL-28 melanoma", "%", 52.6),
    ("Cc1ccc(Nc2ccc(Nc3ccc(C)cc3S(=O)(=O)O)c3c2C(=O)c2ccccc2C3=O)c(S(=O)(=O)O)c1", "SK-MEL-28 melanoma", "%", 107),
    ("CCOc1cc(C2C(Cl)C(=O)N2n2cnnc2)ccc1O (configuration not stated)", "SK-MEL-28 melanoma", "%", 105),
]
